Here, each record is paired with measured IC50 data.
study-system: UniProt K9N7C7
Sequence (K9N7C7 3247-3553 limits assumed): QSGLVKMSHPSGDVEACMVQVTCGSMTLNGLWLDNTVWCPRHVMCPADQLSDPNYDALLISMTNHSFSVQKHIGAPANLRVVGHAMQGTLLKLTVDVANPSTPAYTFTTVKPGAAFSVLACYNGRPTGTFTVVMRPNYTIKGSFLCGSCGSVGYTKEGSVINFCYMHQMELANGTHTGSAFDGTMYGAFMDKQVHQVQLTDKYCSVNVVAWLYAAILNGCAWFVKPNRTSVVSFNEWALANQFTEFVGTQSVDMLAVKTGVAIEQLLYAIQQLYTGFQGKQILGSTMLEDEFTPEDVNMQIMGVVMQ
assay-explanation: biochemical
Number in µM, nothing else.

Recall and state the measured IC50 for CC(C)=CCc1cc(C(=O)/C=C/c2ccc(O)cc2)c(O)cc1O [Compound 1, broussochalcone B] . 27.9

Recall and state the measured IC50 for O=c1c(O)c(-c2ccc(O)c(O)c2)oc2cc(O)cc(O)c12 [Quercetin, quercetin, reference compound] . 34.8

Recall and state the measured IC50 for CC(C)=CCc1cc(C2CCc3ccc(O)cc3O2)cc(O)c1O (stereo not shown) [Compound 5] . 34.7

Recall and state the measured IC50 for COc1cc(O)ccc1CCCc1cc(O)c(O)c(CC=C(C)C)c1CC=C(C)C [Compound 10, kazinol J] . 109

Recall and state the measured IC50 for CC(C)=CCc1cc(-c2oc3cc(O)c(CC=C(C)C)c(O)c3c(=O)c2O)cc(O)c1O [Compound 4, papyriflavonol A] . 64.5
